All values here come from PubChem BioAssay (NCI).

# System: NCI-H226 lung
# protocol: NCI tumour cell line growth inhibition, 48 h
test readout: TGI

1) O=C(CC12CC3CC(CC(C3)C1)C2)NCCOCCOCCNC(=O)c1cc2c(o1)C(=O)c1ccccc1C2=O : 3.94 µM
2) CCCC[C@@H]1NC(=O)[C@H](CCCCN)NC(=O)[C@H](CCCNC(=N)N)NC(=O)[C@H](CC(C)C)NC(=O)[C@@H](NC(=O)[C@H](Cc2cccc(Cl)c2)NC(=O)[C@@H]2CCCN2C(=O)[C@@H](NC(C)=O)C(C)C)CCSSC[C@@H](C(=O)N[C@@H](CCCCN)C(=O)N2CCC[C@H]2C(=O)N2CCC[C@H]2C(=O)N[C@@H](CCC(=O)O)C(N)=O)NC(=O)[C@H](Cc2ccccc2)NC(=O)[C@H](CO)NC(=O)[C@H](C)NC(=O)[C@@H]2CCCN2C1=O : > 50 µM
3) CC(C)(C)C1CCC2c3c([nH]c4ccccc34)C3C(=O)N(c4cc(Br)cc(Br)c4)C(=O)C3C2C1 (stereo not drawn) : 75.6 µM
4) O=C(NC1CCCCC1)c1c(O)[nH]c(=S)[nH]c1=O : > 100 µM
5) O=C1Nc2ccc(Cl)cc2/C1=C\c1c(-c2ccc(F)cc2)nc2ccccn12 : 5.21 µM
6) O=C(O)CSc1n[nH]c(/C=C/c2ccccc2)n1 : > 100 µM
7) CCOn1cc(C[C@@]2(O)C(=O)OC3[C@@H](O)CO[C@@]32O)c2ccccc21 (stereo partly drawn) : > 100 µM
8) CN(C(=O)c1ccc(F)cc1C(F)(F)F)C1CCN(c2nnc(-c3ccnn3C)c3ccccc23)CC1 : > 100 µM
9) COc1ccc(-c2cc3cccc(OC)c3c(=O)o2)cc1OC : 86.5 µM
10) COC(=O)OCC1OC(N2C(=O)NC(=O)C(I)C2N=[N+]=[N-])CC1OC(=O)OC (stereo not drawn) : > 100 µM
11) CSc1nc2c(c(N(C)C)n1)C=Nn1c(nc3ccccc31)S2 : > 100 µM
12) C[C@]12CC[C@H](O)CC1=CC[C@@H]1[C@@H]2CC[C@]2(C)C(=O)/C(=C/c3cccc(OCCCn4ccnc4)c3)C[C@@H]12 : 50.2 µM
13) O=[N+]([O-])c1ccccc1S(=O)c1ccccc1 (stereo not drawn) : > 100 µM
14) O=C(Cn1ccnc1[N+](=O)[O-])N(CCO)CCO : > 1250 µM
15) CCOC(=O)C1(Cc2ccc(C)cc2)Cc2ccc(C)cc2C1=O (stereo not drawn) : > 92.4 µM
16) Cc1ccc(N=Nc2c(O)c3ccccc3[nH]c2=O)c(S(=O)(=O)N(C)C)c1 : > 100 µM
17) COc1ccc(CNc2cc(OC)cc(OC)c2)cc1 : > 100 µM
18) Cc1cc(-c2ccc(C(=O)C(Cl)(Cl)Cl)[nH]2)on1 : 62.9 µM
19) N#C/C(=C\c1ccc(CP(=O)(O)O)cc1)C(N)=O : > 100 µM
20) CS(=O)(=O)C1S(=O)(=O)OCCOS1(=O)=O : > 100 µM
21) COC(=O)/C(=C/c1ccc(OC)cc1)C(C(=O)O)=C(C)C : > 100 µM
22) Nc1ccccc1C#C/C=C\C#Cc1ccc(F)cc1F : 35.8 µM
23) COC(=O)Cc1c([C@@H]2Nc3ccccc3[C@H]2CC(=O)OC)[nH]c2ccccc12 : > 100 µM
24) Cc1c2c(n3c(nc4ccccc43)c1C#N)N(c1ccc(Cl)cc1)CC2 : > 100 µM
25) Cc1c(Cl)ccc2c1NC(=O)C2(O)CC(=O)c1ccc(Cl)cc1Cl (stereo not drawn) : > 50 µM
26) N#CC(c1ccc(O)cc1)N1CCN(C(C#N)c2ccc(O)cc2)CC1 (stereo not drawn) : > 77.6 µM
27) N#CI1OC(=O)c2ccccc21 : > 100 µM
28) CCc1nc2c(O)ccc(O)c2nc1C : 29.9 µM
